- PROTOCOL: Half life in rabbit at 5.6 umol/kg, iv
- Format: ADME, organism-based, Oryctolagus cuniculus
- STATED_CONDITIONS: in vivo
READOUT_KIND: half-life (h)
Express your answer in h, writing the number without its unit.

What value of half-life has been reported for the following compound? COCC1=C(C(=O)N2CCC[C@H]2c2cc(C)no2)[C@@H](c2cc3ccccc3n2C)n2nc(C(F)(F)F)cc2N1
2

----------
- PROTOCOL: Oral bioavailability in rat at 26 umol/kg
- Format: ADME, organism-based
- STATED_CONDITIONS: in vivo
READOUT_KIND: bioavailability (%)
Express your answer in %, writing the number without its unit.

What value of bioavailability has been reported for the following compound? CC1=C(C(=O)N2CCC[C@H]2c2cc(C)no2)[C@@H](c2ccc(Cl)c(Cl)c2)n2nc(C(F)(F)F)cc2N1
68

----------
- PROTOCOL: Volume of distribution at steady state in dog at 5.6 umol/kg, iv and 5.2 umol/kg, po
- Format: ADME, organism-based, Canis lupus familiaris
- STATED_CONDITIONS: in vivo, read-out: Vdss
Reported Vd values are given for each entry in this list.
Express your answer in L/kg, writing the number without its unit.

MOLECULE_SMILES | QUANTITATIVE_RESULT
CC1=C(C(=O)N2CCC[C@H]2c2cc(C)no2)[C@@H](c2ccc(Cl)c(Cl)c2)n2nc(C(F)(F)F)cc2N1 | 1.7

We next turn to a different compound, shown below.
What value of Vd has been reported for the following compound? COCC1=C(C(=O)N2CCC[C@H]2c2cc(C)no2)[C@@H](c2cc3ccccc3n2C)n2nc(C(F)(F)F)cc2N1
3.7

----------
- PROTOCOL: Volume of distribution at steady state in rabbit at 5.6 umol/kg, iv
- Type: ADME, organism-based, Oryctolagus cuniculus
- STATED_CONDITIONS: in vivo, read-out: Vdss
READOUT_KIND: Vd (L/kg)
Express your answer in L/kg, writing the number without its unit.

What value of Vd has been reported for the following molecule? COCC1=C(C(=O)N2CCC[C@H]2c2cc(C)no2)[C@@H](c2cc3ccccc3n2C)n2nc(C(F)(F)F)cc2N1
5

----------
- System: Liver microsomes
- PROTOCOL: Metabolic stability in rat liver microsomes
- Format: ADME, Microsome

MOLECULE | Stability
CC1=C(C(=O)N2CCN(c3ccc(F)cc3)CC2)C(c2ccc(Cl)c(Cl)c2)n2nc(C)cc2N1 (racemic) | Unstable
CC1=C(C(=O)N2CCC[C@H]2c2ccc(F)cc2)[C@@H](c2ccc(Cl)c(Cl)c2)n2nc(C)cc2N1 | Unstable
CC1=C(C(=O)N2CCC[C@H]2c2cc(C)no2)[C@@H](c2ccc(Cl)c(Cl)c2)n2nc(C)cc2N1 | Unstable

----------
- TARGET_ENTITY: Voltage-gated inwardly rectifying potassium channel KCNH2 (Homo sapiens, UniProt Q12809)
- Sequence (Q12809 whole entry): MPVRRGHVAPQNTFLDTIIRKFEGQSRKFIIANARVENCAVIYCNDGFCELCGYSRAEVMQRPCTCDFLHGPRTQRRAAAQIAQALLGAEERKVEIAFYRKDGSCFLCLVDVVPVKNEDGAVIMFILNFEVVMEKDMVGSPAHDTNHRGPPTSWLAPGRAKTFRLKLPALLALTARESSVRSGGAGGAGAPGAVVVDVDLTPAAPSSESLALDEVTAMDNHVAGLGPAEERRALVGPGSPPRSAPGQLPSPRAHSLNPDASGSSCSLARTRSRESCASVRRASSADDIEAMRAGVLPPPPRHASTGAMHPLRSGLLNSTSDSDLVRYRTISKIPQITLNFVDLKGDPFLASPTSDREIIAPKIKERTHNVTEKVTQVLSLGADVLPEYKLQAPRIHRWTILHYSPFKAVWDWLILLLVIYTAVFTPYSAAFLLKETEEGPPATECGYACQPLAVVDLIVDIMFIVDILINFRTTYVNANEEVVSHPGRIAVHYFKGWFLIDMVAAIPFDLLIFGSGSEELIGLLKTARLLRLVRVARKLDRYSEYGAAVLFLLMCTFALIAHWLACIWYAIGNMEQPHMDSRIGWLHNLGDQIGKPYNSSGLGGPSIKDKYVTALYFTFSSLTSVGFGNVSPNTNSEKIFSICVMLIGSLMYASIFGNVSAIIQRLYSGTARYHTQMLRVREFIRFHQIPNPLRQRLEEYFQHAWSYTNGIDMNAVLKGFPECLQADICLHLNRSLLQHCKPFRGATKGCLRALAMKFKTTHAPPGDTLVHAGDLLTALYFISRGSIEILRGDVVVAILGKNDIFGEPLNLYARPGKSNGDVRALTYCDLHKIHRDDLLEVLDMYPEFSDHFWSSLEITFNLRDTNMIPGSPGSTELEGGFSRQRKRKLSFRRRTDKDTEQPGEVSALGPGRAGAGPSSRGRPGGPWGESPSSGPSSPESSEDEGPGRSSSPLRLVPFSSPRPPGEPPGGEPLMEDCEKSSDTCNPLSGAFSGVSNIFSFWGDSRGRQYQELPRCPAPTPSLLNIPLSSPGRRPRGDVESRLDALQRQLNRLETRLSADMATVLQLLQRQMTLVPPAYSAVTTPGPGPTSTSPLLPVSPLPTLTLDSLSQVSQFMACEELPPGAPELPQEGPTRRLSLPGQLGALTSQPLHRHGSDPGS
- PROTOCOL: Inhibition of human ERG expressed in HEK293 cells by patch clamp assay
READOUT_KIND: IC50

Record COCC1=C(C(=O)N2CCC[C@H]2c2cc(C)no2)[C@@H](c2cc3ccccc3n2C)n2nc(C(F)(F)F)cc2N1 : what is its IC50 with Voltage-gated inwardly rectifying potassium channel KCNH2 (Homo sapiens, UniProt Q12809)?
> 10 µM

----------
- PROTOCOL: Half life in rat at 12 umol/kg, iv and 26 umol/kg, po
- Assay type: ADME, organism-based
- STATED_CONDITIONS: in vivo
READOUT_KIND: half-life (h)
Express your answer in h, writing the number without its unit.

What value of half-life has been reported for the following compound? CC1=C(C(=O)N2CCC[C@H]2c2cc(C)no2)[C@@H](c2ccc(Cl)c(Cl)c2)n2nc(C(F)(F)F)cc2N1
1

----------
- Test system: Plasma
- PROTOCOL: Plasma concentration in methoxamine-sensitised rabbit AERP model at 1 mg/kg, iv
- Format: ADME, organism-based, Oryctolagus cuniculus
- Design: dose 1 mg/kg, route intravenous
- STATED_CONDITIONS: in vivo
Reported concentration values are given for each entry in this list.
Express your answer in nM, writing the number without its unit.

MOLECULE_SMILES | QUANTITATIVE_RESULT
CC1=C(C(=O)N2CCC[C@H]2c2cc(C)no2)[C@@H](c2ccc(Cl)c(Cl)c2)n2nc(C(F)(F)F)cc2N1 | 1700

What value of concentration has been reported for the following compound? COCC1=C(C(=O)N2CCC[C@H]2c2cc(C)no2)[C@@H](c2cc3ccccc3n2C)n2nc(C(F)(F)F)cc2N1
700

----------
- TARGET_ENTITY: Potassium voltage-gated channel subfamily A member 5 (Homo sapiens, UniProt P22460)
- Sequence (P22460 whole entry): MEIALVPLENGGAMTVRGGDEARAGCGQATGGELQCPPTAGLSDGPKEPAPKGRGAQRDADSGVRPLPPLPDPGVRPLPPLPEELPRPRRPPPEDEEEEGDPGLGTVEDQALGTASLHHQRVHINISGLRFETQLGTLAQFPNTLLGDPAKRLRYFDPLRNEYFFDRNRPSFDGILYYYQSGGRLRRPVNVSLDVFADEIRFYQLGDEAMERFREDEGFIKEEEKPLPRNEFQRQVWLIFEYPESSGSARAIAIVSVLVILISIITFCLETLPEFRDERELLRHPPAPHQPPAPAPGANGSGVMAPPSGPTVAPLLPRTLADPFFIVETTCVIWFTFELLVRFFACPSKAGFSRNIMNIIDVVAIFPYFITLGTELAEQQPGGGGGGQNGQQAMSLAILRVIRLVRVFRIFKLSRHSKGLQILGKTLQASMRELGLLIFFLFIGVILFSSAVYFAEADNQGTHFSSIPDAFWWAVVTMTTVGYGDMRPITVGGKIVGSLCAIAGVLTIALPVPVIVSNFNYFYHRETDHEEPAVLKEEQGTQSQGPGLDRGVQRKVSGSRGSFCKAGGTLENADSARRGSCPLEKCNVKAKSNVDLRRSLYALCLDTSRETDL
- PROTOCOL: Inhibition of human KV1.5 ion channel expressed in mouse L929 cells at 0.3 uM by whole cell patch clamp assay
- Format: cell-based
READOUT_KIND: inhibition (%)
Express your answer in %, writing the number without its unit.

Past entries and their recorded results:
COMPOUND | inhibition / %
CC1=C(C(=O)N2CCC[C@H]2c2cc(C)no2)[C@@H](c2nc3ccccc3n2C)n2nc(C(F)(F)F)cc2N1 | 36
CC1=C(C(=O)N2CCC[C@H]2c2ccc(F)cc2)[C@@H](c2ccc(Cl)c(Cl)c2)n2nc(C(F)(F)F)cc2N1 | 37
CC1=C(C(=O)N2CCC[C@H]2c2ccc(F)cc2)[C@@H](c2ccc(Cl)c(Cl)c2)n2ncc(C)c2N1 | 45

We next turn to a different compound, shown below.
What value of inhibition has been reported for the following compound? CC1=C(C(=O)N2CCN(c3ccc(F)cc3)CC2)C(c2ccc(Cl)c(Cl)c2)n2ncc(Cl)c2N1 (racemic)
24

----------
- Test system: Liver microsomes
- PROTOCOL: Metabolic stability in human liver microsomes
- Format: ADME, Microsome
READOUT_KIND: Stability

COMPOUND | RESULT
CC1=C(C(=O)N2CCN(c3ccc(F)cc3)CC2)C(c2ccc(Cl)c(Cl)c2)n2nc(C)cc2N1 (racemic) | Unstable
CC1=C(C(=O)N2CCC[C@H]2c2ccc(F)cc2)[C@@H](c2ccc(Cl)c(Cl)c2)n2nc(C)cc2N1 | Unstable
CC1=C(C(=O)N2CCC[C@H]2c2cc(C)no2)[C@@H](c2ccc(Cl)c(Cl)c2)n2nc(C)cc2N1 | Unstable

----------
- PROTOCOL: Clearance in rabbit at 5.6 umol/kg, iv
- Assay type: ADME, organism-based, Oryctolagus cuniculus
- STATED_CONDITIONS: in vivo
READOUT_KIND: clearance (mL/min/kg)
Express your answer in mL/min/kg, writing the number without its unit.

What value of clearance has been reported for the following compound? COCC1=C(C(=O)N2CCC[C@H]2c2cc(C)no2)[C@@H](c2cc3ccccc3n2C)n2nc(C(F)(F)F)cc2N1
47

----------
- PROTOCOL: Clearance in rat at 12 umol/kg, iv and 25.5 umol/kg, po
- Type: ADME, organism-based
- STATED_CONDITIONS: in vivo
READOUT_KIND: clearance (mL/min/kg)
Express your answer in mL/min/kg, writing the number without its unit.

What value of clearance has been reported for the following molecule? COCC1=C(C(=O)N2CCC[C@H]2c2cc(C)no2)[C@@H](c2cc3ccccc3n2C)n2nc(C(F)(F)F)cc2N1
12

----------
- TARGET_ENTITY: Potassium voltage-gated channel subfamily A member 5 (Homo sapiens, UniProt P22460)
- PROTOCOL: Inhibition of human KV1.5 ion channel expressed in mouse L929 cells by whole cell patch clamp assay
Reported pIC50 values are given for each entry in this list.
Scale explanation: pIC50 corresponds to minus log10 of a concentration expressed in moles per litre.

Record CC1=C(C(=O)N2CCN(c3ccc(F)cc3)CC2)C(c2ccc(Cl)c(Cl)c2)n2nc(C)cc2N1 (racemic) : what is its pIC50 with Potassium voltage-gated channel subfamily A member 5 (Homo sapiens, UniProt P22460)?
6.91

Record CC1=C(C(=O)N2CCC[C@H]2c2cc(C)no2)[C@@H](c2nc3ccccc3s2)n2nc(C(F)(F)F)cc2N1 : what is its pIC50 with Potassium voltage-gated channel subfamily A member 5 (Homo sapiens, UniProt P22460)?
6.55

Record CC1=C(C(=O)N2CCC[C@H]2c2cc(C)no2)[C@@H](c2ccc(Cl)c(Cl)c2)n2nc(C)cc2N1 : what is its pIC50 with Potassium voltage-gated channel subfamily A member 5 (Homo sapiens, UniProt P22460)?
6.78

Record CC1=C(C(=O)N2CCC[C@H]2c2cc(C)no2)[C@@H](c2ccc(Cl)c(Cl)c2)n2nc(C3CC3)cc2N1 : what is its pIC50 with Potassium voltage-gated channel subfamily A member 5 (Homo sapiens, UniProt P22460)?
6.64

Record CC1=C(C(=O)N2CCN(c3ccccc3)CC2)C(c2ccc(Cl)c(Cl)c2)n2nc(C)cc2N1 (racemic) : what is its pIC50 with Potassium voltage-gated channel subfamily A member 5 (Homo sapiens, UniProt P22460)?
6.83

Record COCC1=C(C(=O)N2CCC[C@H]2c2cc(C)no2)[C@@H](c2cc3ccccc3n2C)n2nc(C(F)(F)F)cc2N1 : what is its pIC50 with Potassium voltage-gated channel subfamily A member 5 (Homo sapiens, UniProt P22460)?
6.82

Record CC1=C(C(=O)N2CCC[C@H]2c2cc(C)no2)[C@@H](c2ccc(Cl)c(Cl)c2)n2nc(C(F)(F)F)cc2N1 : what is its pIC50 with Potassium voltage-gated channel subfamily A member 5 (Homo sapiens, UniProt P22460)?
7.00

Record CC1=C(C(=O)N2CCN(c3ccc(F)cc3)CC2)C(c2ccc(Cl)c(Cl)c2)n2nc(C(F)(F)F)cc2N1 (racemic) : what is its pIC50 with Potassium voltage-gated channel subfamily A member 5 (Homo sapiens, UniProt P22460)?
6.38

Record CC1=C(C(=O)N2CCC[C@H]2c2cc(C)no2)[C@@H](c2cc3ccccc3n2C)n2nc(C(F)(F)F)cc2N1 : what is its pIC50 with Potassium voltage-gated channel subfamily A member 5 (Homo sapiens, UniProt P22460)?
7.14

Record COCC1=C(C(=O)N2CCC[C@H]2c2cc(C)no2)[C@@H](c2ccc(Cl)c(Cl)c2)n2nccc2N1 : what is its pIC50 with Potassium voltage-gated channel subfamily A member 5 (Homo sapiens, UniProt P22460)?
7.15

Record CC1=C(C(=O)N2CCN(c3ccc(F)cc3)CC2)C(c2ccc(Cl)c(Cl)c2)n2nc(Cl)cc2N1 (racemic) : what is its pIC50 with Potassium voltage-gated channel subfamily A member 5 (Homo sapiens, UniProt P22460)?
6.68

Record CC1=C(C(=O)N2CCC[C@H]2c2ccc(F)cc2)[C@@H](c2ccc(Cl)c(Cl)c2)n2nc(C)cc2N1 : what is its pIC50 with Potassium voltage-gated channel subfamily A member 5 (Homo sapiens, UniProt P22460)?
7.00

Record CC1=C(C(=O)N2CCC[C@H]2c2cc(C)no2)[C@@H](c2ccc(Cl)c(Cl)c2)n2nccc2N1 : what is its pIC50 with Potassium voltage-gated channel subfamily A member 5 (Homo sapiens, UniProt P22460)?
7.08
